Entries annotated with measured pIC50
- experimental target: PRMT5-MTA (Homo sapiens, UniProt O14744)
- Sequence (O14744 whole entry): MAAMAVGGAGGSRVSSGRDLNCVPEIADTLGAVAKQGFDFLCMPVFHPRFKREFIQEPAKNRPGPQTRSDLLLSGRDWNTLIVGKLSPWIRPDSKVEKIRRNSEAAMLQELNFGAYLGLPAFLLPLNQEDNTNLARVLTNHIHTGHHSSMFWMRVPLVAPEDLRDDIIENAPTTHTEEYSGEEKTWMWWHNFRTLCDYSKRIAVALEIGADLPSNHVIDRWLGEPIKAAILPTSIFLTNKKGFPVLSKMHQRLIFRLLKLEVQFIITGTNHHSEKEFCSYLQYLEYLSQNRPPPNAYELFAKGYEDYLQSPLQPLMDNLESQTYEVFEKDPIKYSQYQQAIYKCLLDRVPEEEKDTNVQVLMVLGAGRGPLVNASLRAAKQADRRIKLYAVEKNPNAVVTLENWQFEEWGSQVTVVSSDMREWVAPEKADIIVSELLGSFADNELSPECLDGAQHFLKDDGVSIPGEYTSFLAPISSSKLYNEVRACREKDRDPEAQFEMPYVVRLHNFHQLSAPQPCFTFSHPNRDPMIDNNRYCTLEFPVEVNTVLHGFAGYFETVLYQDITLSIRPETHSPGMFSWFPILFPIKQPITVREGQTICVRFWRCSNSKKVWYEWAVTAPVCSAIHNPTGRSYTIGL
- Sequence (Q9BQA1 whole entry partner): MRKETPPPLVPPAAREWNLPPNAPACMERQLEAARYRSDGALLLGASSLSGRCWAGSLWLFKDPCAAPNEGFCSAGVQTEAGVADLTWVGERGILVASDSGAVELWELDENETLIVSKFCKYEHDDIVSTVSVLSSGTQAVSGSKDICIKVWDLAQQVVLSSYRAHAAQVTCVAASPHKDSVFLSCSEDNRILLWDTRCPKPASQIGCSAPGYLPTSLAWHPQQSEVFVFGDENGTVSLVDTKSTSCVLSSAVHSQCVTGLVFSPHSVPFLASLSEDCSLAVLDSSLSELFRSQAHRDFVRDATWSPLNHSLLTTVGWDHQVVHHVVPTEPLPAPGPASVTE
- test method notes: Enzymatic inhibitory activity against PRMT5-MTA (AlphaScreen)
- Assay type: biochemical
- condition description: read-out: IC50
A value of pIC50 is the negative decimal logarithm of a concentration given in moles per litre.

Some compounds with known pIC50 results, for comparison:
### Prompt // lookup pIC50 for COc1cc2cc(C(=O)N(Cc3ccc(C(F)(F)F)cn3)N(C)c3ncccn3)ccc2nc1N
### Response 8.33

### Prompt // lookup pIC50 for Cc1cc2cc(C(=O)N(Cc3ccc(C4CC4)cn3)N(C)c3ncccn3)ccc2nc1N
### Response 8.80

### Prompt // lookup pIC50 for Nc1nc2ccc(C(=O)N(Cc3ccc(C(F)(F)F)cn3)N(c3ncccn3)C3CC3)cc2cc1Br
### Response 8.31

### Prompt // lookup pIC50 for CCOc1ccc(N2CC(C)CN2C(=O)c2cc3c(cc2C)nc(N)c2cnn(C)c23)nn1 (centres unmarked)
### Response 8.27

### Prompt // lookup pIC50 for CC1CN(C(=O)c2cc3c(cc2Cl)nc(N)c2cnn(C)c23)N(c2ccccc2F)C1 (centres unmarked)
### Response 8.21

More entries:
### Prompt // lookup pIC50 for Cc1cc2nc(N)c3cnn(C)c3c2cc1C(=O)N1CC(O)CN1c1ncccc1F (centres unmarked)
### Response 8.43

### Prompt // lookup pIC50 for Nc1nc2ccc(C(=O)N(Cc3ccc(C(F)(F)F)cn3)N(c3ncccn3)C3CC3)cc2cc1CO
### Response 8.26

### Prompt // lookup pIC50 for Cc1cc2nc(N)c3cnn(C)c3c2cc1C(=O)N1CC(C)CN1c1ncc(C#CC(C)(C)O)cc1F (centres unmarked)
### Response 8.29

###

- experimental target: PRMT5-MTA (Homo sapiens, UniProt O14744)
- test method notes: Enzymatic inhibitory activity against PRMT5-MTA (AlphaScreen)
- Type: biochemical
- condition description: read-out: IC50
Entries annotated with measured IC50

Some compounds with known IC50 results, for comparison:
### Prompt // lookup IC50 for Cc1cc2cc(C(=O)N(Cc3ccc(-c4ccoc4)cn3)N(C)c3ncccn3)ccc2nc1N
### Response 1.8 nM

### Prompt // lookup IC50 for Cc1cc2cc(C(=O)N(Cc3ccc(C(F)(F)F)cn3)N(C)c3nccc4ccncc34)ccc2nc1N
### Response 2.6 nM

More entries:
### Prompt // lookup IC50 for COc1nc(C)ccc1-c1ccc(CN(C(=O)c2ccc3nc(N)c(C)cc3c2)N(C)c2ncccn2)nc1
### Response 1.3 nM

### Prompt // lookup IC50 for Cc1cc2cc(C(=O)N(Cc3ccc(-c4nncs4)cn3)N(C)c3ncccn3)ccc2nc1N
### Response 3.7 nM

###

- System: HCT116 MTAP KO cells
- test method notes: Inhibitory activity against cell proliferation (CellTiter Glo, 6 days), HCT116 MTAP KO
- Type: cell-based
- condition description: ratio of IC50 HCT116-WT / HCT116 MTAP KO
Entries annotated with measured Selectivity HCT 116-WT/ HCT116 MTAP KO
Simply state the number, no unit and no words.

### Prompt // lookup Selectivity HCT 116-WT/ HCT116 MTAP KO for Cc1cc2nc(N)c3cnn(C)c3c2cc1C(=O)N1CC(C)CN1c1ccc(F)cn1 (stereo not shown)
### Response 41.25

### Prompt // lookup Selectivity HCT 116-WT/ HCT116 MTAP KO for CC1CN(C(=O)c2cc3c(cc2F)nc(N)c2cnn(C)c23)N(c2ncccc2F)C1 (single isomer, unassigned) [Example 467]
### Response 32.33

### Prompt // lookup Selectivity HCT 116-WT/ HCT116 MTAP KO for Cc1cc2nc(N)c3cnn(C)c3c2cc1C(=O)N1CC(C)CN1c1ncc(C#CC(C)(C)O)cc1F (stereo not shown)
### Response 27.94

# input for lookup
### Prompt // lookup Selectivity HCT 116-WT/ HCT116 MTAP KO for Cn1ncc2c(N)nc3cc(Cl)c(C(=O)N4CC(F)(F)CN4c4ncc(Cl)cc4F)cc3c21
### Response 26.61

###

- experimental target: PRMT5-MTA (Homo sapiens, UniProt O14744)
- test method notes: Enzymatic inhibitory activity against PRMT5-MTA (AlphaScreen)
- Type: biochemical
- condition description: read-out: IC50
- Procedure: The AlphaScreen method was used to detect the enzymatic inhibitory activity of the compounds against PRMT5-MTA. 1 x Methyltransferase assay buffer IV (signalchem) was prepared as a solution for diluting each component for the enzymatic reaction. […] The signal values were detected for the well plate through the Alpha method using an Envision multifunctional microplate-reader, and the IC50 values for inhibition of the compounds on PRMT5/MET50 enzyme activity were calculated in Xlfit 5.0 software. […]
# note: exactly 3 nM is not below, so it is rule not met; use rule met for IC50 strictly under it

### Prompt In the record for Cc1cc2cc(C(=O)N3CC(C)CN3c3ncccc3F)c(F)cc2nc1N (stereo not shown) , is IC50 less than 3 nM?
### Response rule not met

###

- Tested on: HCT116 MTAP KO cells
- test method notes: Inhibitory activity against cell proliferation (CellTiter Glo, 6 days), HCT116 MTAP KO
- Format: cell-based
- condition description: ratio of IC50 HCT116-WT / HCT116 MTAP KO
reported metric: Selectivity HCT 116-WT/ HCT116 MTAP KO
Simply state the number, no unit and no words.

### Prompt // lookup Selectivity HCT 116-WT/ HCT116 MTAP KO for Cc1cc2cc(C(=O)N(Cc3ccc(-c4cc[nH]c(=O)c4)cn3)N(C)c3ncccn3)ccc2nc1N
### Response 11.79

### Prompt // lookup Selectivity HCT 116-WT/ HCT116 MTAP KO for Cc1cc2cc(C(=O)N(Cc3ccc(-c4ccnnc4)cn3)N(C)c3ncccn3)ccc2nc1N
### Response 17.61

### Prompt // lookup Selectivity HCT 116-WT/ HCT116 MTAP KO for Cc1cc2cc(C(=O)N(Cc3ccc(-c4cnc(C(F)(F)F)s4)cn3)N(C)c3ncccn3)ccc2nc1N
### Response 14.17

### Prompt // lookup Selectivity HCT 116-WT/ HCT116 MTAP KO for Cc1cc2cc(C(=O)N(Cc3ccc(C4=CCOCC4)cn3)N(C)c3ncccn3)ccc2nc1N
### Response 28.76

### Prompt // lookup Selectivity HCT 116-WT/ HCT116 MTAP KO for Cn1ncc2c(N)nc3cc(Cl)c(C(=O)N4CC5(CN4c4ncccc4F)CC(F)(F)C5)cc3c21
### Response 14.73

More entries:
### Prompt // lookup Selectivity HCT 116-WT/ HCT116 MTAP KO for Cc1cc2cc(C(=O)N(Cc3ccc(-c4scnc4CO)cn3)N(C)c3ncccn3)ccc2nc1N
### Response 42.85

### Prompt // lookup Selectivity HCT 116-WT/ HCT116 MTAP KO for Cc1cc2cc(C(=O)N(Cc3ccc(C4(F)CCC4)cn3)N(C)c3ncccn3)ccc2nc1N
### Response 22.69

###

- experimental target: UniProt O14744
- test method notes: Enzymatic inhibitory activity against PRMT5-MTA (AlphaScreen)
- Format: biochemical
- condition description: read-out: IC50
Entries annotated with measured pIC50
A value of pIC50 is the negative decimal logarithm of a concentration given in moles per litre.

### Prompt // lookup pIC50 for Cc1cc2cc(C(=O)N(Cc3ccc(-c4cnn(C(F)(F)F)c4)cn3)N(C)c3ncccn3)ccc2nc1N
### Response 8.77

More entries:
### Prompt // lookup pIC50 for Cc1cc2cc(C(=O)N(Cc3ccc(-c4nn[nH]n4)cn3)N(C)c3ncccn3)ccc2nc1N
### Response 8.02

###

- Tested on: HCT116 MTAP KO cells
- test method notes: Inhibitory activity against cell proliferation (CellTiter Glo, 6 days), HCT116 MTAP KO
- Format: cell-based
- condition description: ratio of IC50 HCT116-WT / HCT116 MTAP KO
Entries annotated with measured Selectivity HCT 116-WT/ HCT116 MTAP KO
Simply state the number, no unit and no words.

Some molecules with known Selectivity HCT 116-WT/ HCT116 MTAP KO results, for comparison:
### Prompt // lookup Selectivity HCT 116-WT/ HCT116 MTAP KO for CC(=O)c1ccc(CN(C(=O)c2ccc3nc(N)c(C)cc3c2)N(C)c2ncccn2)nc1
### Response 25.71

### Prompt // lookup Selectivity HCT 116-WT/ HCT116 MTAP KO for COC1CN(C(=O)c2cc3c(cc2Cl)nc(N)c2cnn(C)c23)N(c2ccccc2F)C1 (centres unmarked)
### Response 18.62

### Prompt // lookup Selectivity HCT 116-WT/ HCT116 MTAP KO for Cc1cc2cc(C(=O)N(Cc3ccc(C(F)(F)F)cn3)N(C)c3nccs3)ccc2nc1N
### Response 19.87

### Prompt // lookup Selectivity HCT 116-WT/ HCT116 MTAP KO for COC1CN(C(=O)c2cc3c(cc2C)nc(N)c2cnn(C)c23)N(c2ncc(Cl)cc2F)C1 (centres unmarked)
### Response 37.31

### Prompt // lookup Selectivity HCT 116-WT/ HCT116 MTAP KO for Cc1cc2nc(N)c3cnn(C)c3c2cc1C(=O)N1CC(C)CN1c1cncc(F)c1 (centres unmarked)
### Response 27.40

More entries:
### Prompt // lookup Selectivity HCT 116-WT/ HCT116 MTAP KO for Cc1cc2cc(C(=O)N(Cc3ccc(-c4cnn(C(F)F)c4)cn3)N(C)c3ncccn3)ccc2nc1N
### Response 22.13

### Prompt // lookup Selectivity HCT 116-WT/ HCT116 MTAP KO for Cc1cc2cc(C(=O)N(Cc3ccc(-c4ccc(N(C)C)nc4)cn3)N(C)c3ncccn3)ccc2nc1N
### Response 21.53

### Prompt // lookup Selectivity HCT 116-WT/ HCT116 MTAP KO for Cc1cc2nc(N)c3cnn(C)c3c2cc1C(=O)N1CC(C)CN1c1cc(F)ccn1 (centres unmarked)
### Response 30.42
